Assay: chemical genetic growth profiling, strain panel (AID 1159580);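 note: tested at 20 µM; growth read once vehicle control cultures reached saturation at 30 °C; lower values mean less growth of the strain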
Details: S. cerevisiae deletion strains, growth OD, locus YDL035C, strain GPR1, active compounds read low
Hit rate of the full screen: of about 5,500 compounds, about 2,000 (36%) were called active. Roughly 18% stayed inconclusive and do not appear here. This is one part of the list.
# note: boundary value 1 maps to condition not met; normalized growth below it maps to condition met

COC(=O)[C@]1(C)CC[C@]2(C)CC[C@]3(C)C4=CCc5c(cc(O)c(O)c5C)[C@]4(C)CC[C@@]3(C)C2C1 (stereo not given in full); condition met

Exam item: For `O=[N+]([O-])c1ccc(O)c([N+](=O)[O-])c1` , is the recorded normalized growth below the cut-off of 1?
Marked response: condition met

Exam item: For `CN/C(=C\[N+](=O)[O-])NCCSCc1ccc(CN(C)C)o1` , is the recorded normalized growth below the cut-off of 1?
Marked response: condition not met

Exam item: For CC(=O)O[C@@H]1C[C@@]2(C)[C@H](c3ccoc3)C[C@H]3O[C@]32[C@]2(C)C(=O)C(O)=C3C(C)(C)C(=O)C=C[C@]3(C)C12 (stereo not given in full) , is the recorded normalized growth below the cut-off of 1?
Marked response: condition met

Exam item: For Nc1ncnc2c1ncn2C1O[C@H](COP(=O)(O)O)[C@@H](O)[C@H]1O (stereo not given in full) , is the recorded normalized growth below the cut-off of 1?
Marked response: condition not met

Exam item: For Cc1c(O)c(O)cc2c1CC=C1[C@@]2(C)CC[C@@]2(C)C3C[C@](C)(C(=O)O)CC[C@]3(C)CC[C@]12C (stereo not given in full) , is the recorded normalized growth below the cut-off of 1?
Marked response: condition met

Exam item: For `OC[C@@H](O)[C@@H](O[C@@H]1O[C@H](CO)[C@@H](O)[C@H](O)[C@H]1O)[C@H](O)[C@@H](O)CO` , is the recorded normalized growth below the cut-off of 1?
Marked response: condition not met

Exam item: For CC1(C)C(O)CC(O)C2(C)C1CC(O)C1(C)C2CCC2(C)C(c3ccoc3)CC3OC321 (stereo not given) , is the recorded normalized growth below the cut-off of 1?
Marked response: condition met
